All figures here come from paper PMC6331978.

Tested on: CaCo-2 cells
Assay: Intracellular ROS formation (H2DCF-DA) in CaCo-2 cells
Assay type: cell-based, human
Settings: 10 µg/mL
property: Effect on ROS formation, sesquiterpene alone

>  <molecule>
C=C(C)[C@@H]1CCC2=CCC[C@@H](C)[C@]2(C)C1

>  <target_system>
CaCo-2 cells

>  <meas_value>
pro-oxidative effects

$$$$
>  <molecule>
C=C1CC[C@H]2O[C@]2(C)CC[C@@H]2[C@@H]1CC2(C)C [CAO, β-caryophyllene oxide]

>  <target_system>
CaCo-2 cells

>  <meas_value>
pro-oxidative effects

$$$$
